Attribution: paper PMC4834193

Assay: Brain penetration study in CD1 mice
Format: in vivo
Settings: CD1, mouse, plasma, intraperitoneal, 10 mg/kg
REPORTED PROPERTY: concentration at 2 h (ng/mL)

> print(dat)
                                   compound     reported.property  endpoint.value
1  C=C(F)COc1ccc(Cl)cc1[C@H]1C[C@@H]1CN.Cl [(+)-13j]  concentration at 2 h             903
2  Cl.NC[C@H]1C[C@@H]1c1cc(Cl)ccc1OCCF [(+)-13l]  concentration at 2 h             874

* * *

Biological target: human 5-HT2B (Homo sapiens)
Sequence (P41595 whole entry): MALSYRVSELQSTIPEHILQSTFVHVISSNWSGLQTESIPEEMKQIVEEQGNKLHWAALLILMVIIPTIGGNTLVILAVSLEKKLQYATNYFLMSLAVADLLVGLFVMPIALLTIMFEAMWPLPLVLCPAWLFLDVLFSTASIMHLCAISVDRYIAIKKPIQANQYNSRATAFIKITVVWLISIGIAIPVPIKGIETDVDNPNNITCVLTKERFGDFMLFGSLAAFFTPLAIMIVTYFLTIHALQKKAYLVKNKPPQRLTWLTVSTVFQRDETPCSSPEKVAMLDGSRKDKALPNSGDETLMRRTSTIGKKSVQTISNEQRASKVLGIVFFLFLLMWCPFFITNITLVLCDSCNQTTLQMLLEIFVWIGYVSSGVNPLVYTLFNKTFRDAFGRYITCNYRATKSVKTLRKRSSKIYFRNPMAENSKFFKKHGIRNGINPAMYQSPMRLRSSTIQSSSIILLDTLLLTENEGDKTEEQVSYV
pKi: −log10 of the molar value.
# pKi per record follows
REPORTED PROPERTY: pKi

> print(dat)
                                   compound                  measured.on  endpoint.value
1  Cl.NC[C@H]1C[C@@H]1c1cc(F)ccc1OCCF [(+)-16d]  human 5-HT2B (Homo sapiens)    7.30 to 7.52
2  C=CCOc1ccc(F)cc1[C@H]1C[C@@H]1CN.Cl [(+)-16b]  human 5-HT2B (Homo sapiens)    7.30 to 7.52

* * *

# Ki per record follows
Target: 5-HT2C receptor (Homo sapiens)
Sequence (P28335 33-458): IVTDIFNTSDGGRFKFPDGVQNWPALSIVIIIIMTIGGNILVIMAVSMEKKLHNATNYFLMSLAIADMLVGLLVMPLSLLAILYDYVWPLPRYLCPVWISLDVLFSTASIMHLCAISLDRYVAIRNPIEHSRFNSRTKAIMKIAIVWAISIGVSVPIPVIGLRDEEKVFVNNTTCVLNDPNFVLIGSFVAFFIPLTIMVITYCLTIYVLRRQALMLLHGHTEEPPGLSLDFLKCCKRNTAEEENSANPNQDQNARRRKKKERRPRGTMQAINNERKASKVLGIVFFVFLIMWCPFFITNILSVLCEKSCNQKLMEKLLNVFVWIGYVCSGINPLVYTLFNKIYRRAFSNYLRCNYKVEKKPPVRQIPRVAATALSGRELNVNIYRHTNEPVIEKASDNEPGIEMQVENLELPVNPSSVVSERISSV
REPORTED PROPERTY: Ki

> print(dat)
                                   compound  endpoint.value
1  C=CCOc1ccc(F)cc1[C@H]1C[C@@H]1CN.Cl [(+)-16b]     30 to 50 nM
2  Cl.NC[C@H]1C[C@@H]1c1cc(F)ccc1OCCF [(+)-16d]     30 to 50 nM

* * *

Molecular target: UniProt P41595
Experiment: Calcium flux
REPORTED PROPERTY: EC50

> print(dat)
                                   compound  reported.property  endpoint.value
1  C=C(C)COc1ccc(Cl)cc1[C@H]1C[C@@H]1CN [(+)-13k]               EC50         6.09 µM
